- Assay Method Text: collision cross section of modified peptide (TIMS, N2, iRT-aligned); higher = larger / more extended gas-phase ion
- Condition Notes: charge state: 2; modification: HexNAc (ST)
Reported Metric: collision cross section (Å²)

• LSFGLEDEPLETATK [_LSFGLEDEPLET(HexNAc (ST))ATK_] = 457.66
• TLTPASSPVSSPSK [_TLTPASSPVSSPS(HexNAc (ST))K_] = 404.79
• ISPVEESEDVSNK [_ISPVEES(HexNAc (ST))EDVSNK_] = 415.06
• GSAPPGPVPEGSIR [_GS(HexNAc (ST))APPGPVPEGSIR_] = 399.5
• QQETAAAETETR [_QQETAAAETET(HexNAc (ST))R_] = 397.03
• HVSPVTPPR [_HVSPVT(HexNAc (ST))PPR_] = 366.95
• TSAVSSQANSQPPVQVSVK [_TSAVSSQANSQPPVQVS(HexNAc (ST))VK_] = 471.02
• EGFSIPVSADGFK [_EGFSIPVS(HexNAc (ST))ADGFK_] = 412.81
• RFSPPSSSLQPGK [_RFS(HexNAc (ST))PPSSSLQPGK_] = 414.91
• VMVAPISGSVTTGTK [_VMVAPIS(HexNAc (ST))GSVTTGTK_] = 423.51
